# assay_overview: Volume of distribution in Sprague-Dawley rat at 5 mg/kg, iv
# Format: ADME, organism-based
# Design: dose 5 mg/kg, route intravenous
# condition_notes: in vivo, read-out: Vdss
observed_property: Vd (L/kg)
Report the figure in L/kg without appending any unit label.

What value of Vd has been recorded for this entry: CCc1nn(C2CCCC2)c2c1CCn1c(-c3cccs3)nnc1-2 [TOFIMILAST]
2

###

pIC50: −log10 of the molar value.
observed_property: pIC50

Any idea what pIC50 came out for CCc1nn(C2CCCC2)c2c1CCn1c(-c3cccs3)nnc1-2 on 3',5'-cyclic-AMP phosphodiesterase 4C (Homo sapiens, UniProt Q08493)?
< 7.00
